- TARGET_SYSTEM: human CD40 on cells (human, UniProt P25942 21-277)
- Sequence (P25942 21-277): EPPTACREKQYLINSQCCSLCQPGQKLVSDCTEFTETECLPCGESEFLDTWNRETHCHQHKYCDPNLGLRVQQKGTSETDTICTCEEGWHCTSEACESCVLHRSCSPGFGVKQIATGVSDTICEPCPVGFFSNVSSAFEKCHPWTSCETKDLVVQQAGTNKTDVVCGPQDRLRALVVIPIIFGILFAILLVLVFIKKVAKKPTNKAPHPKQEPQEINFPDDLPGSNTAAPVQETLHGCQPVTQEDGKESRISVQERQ
- METHOD_DESCRIPTION: cell-based or functional assay
EXPERIMENTAL_ENDPOINT: EC50 (nM), uncrosslinked, HEK293-hCD40-NFkB reporter

BINDER	REPORTED_RESULT
PR006500 (antibody, human IgG1, kappa, V domains shown, PR003379 variant L:N92M; human IgG1 L234A, L235A, G237A) VH: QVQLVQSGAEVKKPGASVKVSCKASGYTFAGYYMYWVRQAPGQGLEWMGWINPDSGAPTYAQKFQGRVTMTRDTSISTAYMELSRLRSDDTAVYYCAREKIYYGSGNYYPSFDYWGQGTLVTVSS VL: DIQLTQSPSFLSASVGDRVTITCRASQGISSYLAWYQQKPGKAPKLLIYAASTLQSGVPSRFSGSGSGTEFTLTISSLQPEDFATYYCQQLMSYPWTFGQGTKVEIKR	0.301

Cited source: patent US20250215100A1
